# Method summary: self-splicing fitness, log relative to wild type (ln ratio); higher = more splicing; Tetrahymena group I intron in knt gene, E. coli kanamycin selection, DiMSum; sequences stand for … in CUCUCU…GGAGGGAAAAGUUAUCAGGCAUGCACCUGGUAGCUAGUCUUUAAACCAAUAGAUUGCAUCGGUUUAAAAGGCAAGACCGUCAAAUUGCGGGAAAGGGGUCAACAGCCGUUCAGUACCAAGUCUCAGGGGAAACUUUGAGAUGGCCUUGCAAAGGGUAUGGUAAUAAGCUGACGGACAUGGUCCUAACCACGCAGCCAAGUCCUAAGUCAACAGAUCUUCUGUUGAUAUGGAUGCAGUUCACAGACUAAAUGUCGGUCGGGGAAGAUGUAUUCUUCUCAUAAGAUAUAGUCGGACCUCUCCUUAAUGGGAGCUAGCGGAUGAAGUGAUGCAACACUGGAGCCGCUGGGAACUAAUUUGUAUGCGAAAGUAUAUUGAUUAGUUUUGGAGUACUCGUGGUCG;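 further: selection with 25 µg/mL kanamycin versus none on LB agar overnight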
# Experimental setup: 30 °C
Exercise: state measured self-splicing fitness (ln) for each of the sequences provided.
# respond with the number and nothing more

[ask] Consider the sequence shown here: AACGAGCAAUAUUACGCAAC What is its recorded self-splicing fitness (ln)?
[reply] -2.01

[ask] CGACAGCAAUAUUACGAGCG , same question.
[reply] -2.02

[ask] Let us now turn to CCAUAGCAAUAUUACGAAAA
[reply] -3.02

[ask] What about this sequence? CACAAGCAAUAUUACGGUGG
[reply] -1.99
